Below, each of the binders is paired with its reported pKd value.
# target.of.assay: T1, EsCas13d, nuclease-dead (Eubacterium siraeum, UniProt B0MS50, R295A;H300A;R849A;H854A)
# T1 sequence: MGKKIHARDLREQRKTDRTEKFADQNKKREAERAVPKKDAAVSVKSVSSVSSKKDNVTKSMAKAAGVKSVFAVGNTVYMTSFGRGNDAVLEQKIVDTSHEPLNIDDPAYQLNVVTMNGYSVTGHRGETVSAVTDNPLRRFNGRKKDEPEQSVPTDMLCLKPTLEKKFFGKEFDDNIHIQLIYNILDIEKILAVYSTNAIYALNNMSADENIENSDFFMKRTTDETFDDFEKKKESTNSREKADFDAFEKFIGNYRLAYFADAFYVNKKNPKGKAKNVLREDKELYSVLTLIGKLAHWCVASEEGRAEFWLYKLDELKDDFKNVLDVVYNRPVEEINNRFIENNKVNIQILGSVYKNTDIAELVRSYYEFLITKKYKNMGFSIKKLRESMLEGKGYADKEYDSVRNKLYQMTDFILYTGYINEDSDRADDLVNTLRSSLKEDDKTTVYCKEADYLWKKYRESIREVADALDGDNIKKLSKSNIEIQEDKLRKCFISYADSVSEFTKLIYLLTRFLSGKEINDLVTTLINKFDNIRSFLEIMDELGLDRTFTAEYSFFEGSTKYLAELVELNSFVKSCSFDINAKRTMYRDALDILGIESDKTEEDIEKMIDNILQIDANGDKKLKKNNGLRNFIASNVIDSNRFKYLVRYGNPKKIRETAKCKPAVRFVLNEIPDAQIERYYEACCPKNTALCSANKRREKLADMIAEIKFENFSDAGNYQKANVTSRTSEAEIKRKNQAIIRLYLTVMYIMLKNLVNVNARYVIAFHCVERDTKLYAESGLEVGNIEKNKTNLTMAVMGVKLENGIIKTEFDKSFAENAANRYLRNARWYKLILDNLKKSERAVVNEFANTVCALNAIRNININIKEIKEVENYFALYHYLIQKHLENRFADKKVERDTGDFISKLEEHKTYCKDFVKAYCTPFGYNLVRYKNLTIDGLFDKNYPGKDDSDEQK
# assay.details: crRNA (strand 1, pre-loaded); Mg2+; 40 mM Tris-HCl pH 7.5, 150 mM NaCl, 6 mM MgCl2, 1 mM DTT, 0.1% Tween-20, 0.2 mg/ml BSA; 25 C; 10 min per concentration, then washed
# measurement.context: tags: His6-TwinStrep-SUMO cleaved; N-terminal SNAP kept (SNAP-Surface 488); label: 3' end held by stalled T7 RNA polymerase
pKd: −log10 of the molar value.
quantity.kind: pKd

>  <binder>
target 2 MT 5'PFS ACU 3'PFS CAG (mixed) RNA 1: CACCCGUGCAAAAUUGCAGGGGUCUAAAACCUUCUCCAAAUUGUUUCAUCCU RNA 2: GGGAAUGGAUCCACAUCUACGAAUUCACUAGGAUGAAACAAUUUGGAGAAGCAGAGAUCGGAAGAGCACACGU

>  <measured.value>
8.35

$$$$
>  <binder>
target 2 MT 5'PFS UUA 3'PFS CGG (mixed) RNA 1: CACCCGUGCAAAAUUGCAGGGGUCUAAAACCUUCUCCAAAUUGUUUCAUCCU RNA 2: GGGAAUGGAUCCACAUCUACGAAUUCUUAAGGAUGAAACAAUUUGGAGAAGCGGAGAUCGGAAGAGCACACGU

>  <measured.value>
7.68

$$$$
>  <binder>
target 1 G15C,A16U (mixed) RNA 1: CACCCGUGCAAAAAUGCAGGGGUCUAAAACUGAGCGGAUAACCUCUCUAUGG RNA 2: GGGAAUGGAUCCACAUCUACGAAUUCGUACCAUAGUCAGGUUAUCCGCUCACCGAGAUCGGAAGAGCACACGU

>  <measured.value>
7.33

$$$$
>  <binder>
target 2 MT 5'PFS CAC 3'PFS CUC (mixed) RNA 1: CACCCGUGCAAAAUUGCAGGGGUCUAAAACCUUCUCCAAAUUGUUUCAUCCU RNA 2: GGGAAUGGAUCCACAUCUACGAAUUCCACAGGAUGAAACAAUUUGGAGAAGCUCAGAUCGGAAGAGCACACGU

>  <measured.value>
8.54

$$$$
>  <binder>
target 1 A1G,C7G (mixed) RNA 1: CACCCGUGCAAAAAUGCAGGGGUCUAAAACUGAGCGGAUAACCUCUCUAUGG RNA 2: GGGAAUGGAUCCACAUCUACGAAUUCGUACCAUAGAGAGGUUAUGCGCUCGCCGAGAUCGGAAGAGCACACGU

>  <measured.value>
8.04

$$$$
>  <binder>
target 1 MT 5'PFS CAC 3'PFS AAG (mixed) RNA 1: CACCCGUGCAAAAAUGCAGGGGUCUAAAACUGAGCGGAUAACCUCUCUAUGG RNA 2: GGGAAUGGAUCCACAUCUACGAAUUCCACCCAUAGAGAGGUUAUCCGCUCAAAGAGAUCGGAAGAGCACACGU

>  <measured.value>
7.38

$$$$
>  <binder>
target 1 A16C,A18U (mixed) RNA 1: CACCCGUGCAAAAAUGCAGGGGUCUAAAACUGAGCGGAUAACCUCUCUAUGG RNA 2: GGGAAUGGAUCCACAUCUACGAAUUCGUACCAUUGCGAGGUUAUCCGCUCACCGAGAUCGGAAGAGCACACGU

>  <measured.value>
7.05

$$$$
>  <binder>
target 1 C2A,U8C (mixed) RNA 1: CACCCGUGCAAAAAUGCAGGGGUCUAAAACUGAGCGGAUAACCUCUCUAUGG RNA 2: GGGAAUGGAUCCACAUCUACGAAUUCGUACCAUAGAGAGGUUACCCGCUAACCGAGAUCGGAAGAGCACACGU

>  <measured.value>
8.28

$$$$
>  <binder>
target 1 G17A,A18U (mixed) RNA 1: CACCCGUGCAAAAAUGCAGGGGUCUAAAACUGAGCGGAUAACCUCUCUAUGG RNA 2: GGGAAUGGAUCCACAUCUACGAAUUCGUACCAUUAAGAGGUUAUCCGCUCACCGAGAUCGGAAGAGCACACGU

>  <measured.value>
7.30

$$$$
>  <binder>
target 1 insC 3' of 5,insU 3' of 4 (mixed) RNA 1: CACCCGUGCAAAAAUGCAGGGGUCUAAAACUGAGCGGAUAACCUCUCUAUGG RNA 2: GGGAAUGGAUCCACAUCUACGAAUUCGUACCAUAGAGAGGUUAUCCGCCUUCACCGAGAUCGGAAGAGCACACGU

>  <measured.value>
7.80

$$$$
>  <binder>
target 2 MT 5'PFS GUA 3'PFS CAG (mixed) RNA 1: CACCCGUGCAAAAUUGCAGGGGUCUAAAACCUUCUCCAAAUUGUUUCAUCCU RNA 2: GGGAAUGGAUCCACAUCUACGAAUUCGUAAGGAUGAAACAAUUUGGAGAAGCAGAGAUCGGAAGAGCACACGU

>  <measured.value>
8.02

$$$$
>  <binder>
target 1 A16G,C22U (mixed) RNA 1: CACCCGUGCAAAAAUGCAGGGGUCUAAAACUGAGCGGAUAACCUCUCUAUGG RNA 2: GGGAAUGGAUCCACAUCUACGAAUUCGUAUCAUAGGGAGGUUAUCCGCUCACCGAGAUCGGAAGAGCACACGU

>  <measured.value>
7.27

$$$$
>  <binder>
target 1 insC 3' of 20,insU 3' of 18 (mixed) RNA 1: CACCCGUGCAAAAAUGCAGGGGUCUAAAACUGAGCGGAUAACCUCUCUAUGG RNA 2: GGGAAUGGAUCCACAUCUACGAAUUCGUACCACUAUGAGAGGUUAUCCGCUCACCGAGAUCGGAAGAGCACACGU

>  <measured.value>
8.21

$$$$
>  <binder>
target 3 insA 3' of 22,insA 3' of 6 (mixed) RNA 1: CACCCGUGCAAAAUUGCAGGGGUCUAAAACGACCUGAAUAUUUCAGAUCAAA RNA 2: GGGAAUGGAUCCACAUCUACGAAUUCGUUUAUUGAUCUGAAAUAUUCAAGGUCUGCAGAUCGGAAGAGCACACGU

>  <measured.value>
7.95

$$$$
